Source listed as the Human Domainome abundance scans (Beltran et al. 2025).

B1: GA-binding protein alpha chain, residues 172 to 250; numbered along this chain, Q06546 (parent)
chain: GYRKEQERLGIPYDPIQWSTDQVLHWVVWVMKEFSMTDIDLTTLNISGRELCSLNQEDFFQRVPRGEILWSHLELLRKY

Variants of: B1
Assay: abundance fitness (aPCA) (normalised: wild type 0, dead -1); higher = more abundant; growth selection in yeast, the domain comes from the species named
Details: Homo sapiens
Output schema: class label derived from abundance fitness. Mapping: lower bin: < -0.4; middle bin: ≥ -0.4 and < -0.08; upper bin: ≥ -0.08

Use these answered entries as a reference point.
>  <Sequence entry>
GYRKEQERLGIPYDPIQWSTDQVLHWVVWVMKEFSMTDIDLTTLNISGRELCSLNQEDFFQRVPRDEILWSHLELLRKY [G66D]

>  <Label value>
lower bin

$$$$
>  <Sequence entry>
GYFKEQERLGIPYDPIQWSTDQVLHWVVWVMKEFSMTDIDLTTLNISGRELCSLNQEDFFQRVPRGEILWSHLELLRKY [R3F]

>  <Label value>
upper bin

$$$$
>  <Sequence entry>
GYRKEQERLGIPYDPIQWSTDQVLHWVVWVMKEFSMTDIDLTTLNIMGRELCSLNQEDFFQRVPRGEILWSHLELLRKY [S47M]

>  <Label value>
lower bin

$$$$
>  <Sequence entry>
GYRKEQERLGIPYDPIQWSTDQVLHWVVWVMKEFSMTDIDLTTLNISMRELCSLNQEDFFQRVPRGEILWSHLELLRKY [G48M]

>  <Label value>
lower bin

$$$$
>  <Sequence entry>
GYRKEQERLGIPYDPIQWSTDQVLHWVVWVMKEFSMTDIDLTTLNISGRELCSLNQEDFFQRVPRGEILWSHKELLRKY [L73K]

>  <Label value>
lower bin

$$$$
>  <Sequence entry>
GYRKEQERLGIPYDPIQWSTDQVLHWVVWVMKEFSMTDIYLTTLNISGRELCSLNQEDFFQRVPRGEILWSHLELLRKY [D40Y]

>  <Label value>
lower bin

$$$$
>  <Sequence entry>
GYRKEQERLGIPYDPIQWSTDQVLHWVVWVMKEFSMTDIDLTTLNISGRELCSINQEDFFQRVPRGEILWSHLELLRKY [L54I]

>  <Label value>
middle bin

$$$$
>  <Sequence entry>
GYRKEQERLGIPYDPIQWSTDQVLHWVFWVMKEFSMTDIDLTTLNISGRELCSLNQEDFFQRVPRGEILWSHLELLRKY [V28F]

>  <Label value>
middle bin

$$$$
>  <Sequence entry>
GYRKEQERLGIPYDPIQWSTDQHLHWVVWVMKEFSMTDIDLTTLNISGRELCSLNQEDFFQRVPRGEILWSHLELLRKY [V23H]

>  <Label value>
lower bin

$$$$
>  <Sequence entry>
GYRKEQERLGIPYDPIQWSTDQVLHWVVWVMKEFKMTDIDLTTLNISGRELCSLNQEDFFQRVPRGEILWSHLELLRKY [S35K]

>  <Label value>
upper bin

$$$$

Into which category would you place GYRKEQERLGIPYDPIQWSTDQVLHWVVWVMKEFSMTDIDLTTLNISGRELCSLNQEDFFQRVPRGEILWSHLELLRIY [K78I] ?
upper bin

Then this variant: GYRKEQERLGIPYDPIQWSTDQVLHWVVWVMKEFSMTDIDLTTLNISGRELCSLNQEDFFQRVPRGCILWSHLELLRKY [E67C]
middle bin

Then this variant: GYRKEQERLGIPYDPIQWSTDQVLHWVVWVMKEFSMTDIDLTTLNISGRELCSLNQEDFFQRLPRGEILWSHLELLRKY [V63L]
upper bin

Then this variant: GYRKEQERLGGPYDPIQWSTDQVLHWVVWVMKEFSMTDIDLTTLNISGRELCSLNQEDFFQRVPRGEILWSHLELLRKY [I11G]
lower bin

Then this variant: GYRKEQERLGIPYDPIQWSTDQVLHWVVWVMKEFSMTDIDLTTLNRSGRELCSLNQEDFFQRVPRGEILWSHLELLRKY [I46R]
lower bin

Then this variant: GYRKEQERLGIPYDPIQWSTDQVLHWVVWVMKEFSMTDIDLTTLNISGRELCSLNQEDFWQRVPRGEILWSHLELLRKY [F60W]
middle bin

Then this variant: GYRKEQERLGIPYDPIQWSTDQVLHWVVWVMKEFSMTDIDLTTLNISGRELCSLNYEDFFQRVPRGEILWSHLELLRKY [Q56Y]
upper bin

Then this variant: GYRKEQERLGIPYDPIQWSADQVLHWVVWVMKEFSMTDIDLTTLNISGRELCSLNQEDFFQRVPRGEILWSHLELLRKY [T20A]
upper bin

Then this variant: GYRKEQERLGIPYDPIQWSTDQLLHWVVWVMKEFSMTDIDLTTLNISGRELCSLNQEDFFQRVPRGEILWSHLELLRKY [V23L]
lower bin

Then this variant: GYRKEQERLGIPYDPIQWSTDQVLHWVVWVMKEFSMTDIDLTTLNISGRELCSLNQEDFFQRVPRGEILWSHLELLRKV [Y79V]
middle bin
